B1: IKZF1 (parent)
chain: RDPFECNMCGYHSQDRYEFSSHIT

- Variants of: B1
- Assay Protocol: protein stability index of a GFP-peptide fusion (GPS, HEK-293T) (PSI 1-6); higher = more stable;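 also: lentivirally expressed fusions sorted by FACS into six bins by GFP to DsRed ratio, PSI derived from sequencing read proportions per bin multiplied by bin number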
- Conditions Used: c terminus: a fixed tail appended
Short version: protein stability index at least 2 is true (1), less is false (0).

Task: hey, is protein stability index for this one >= 2? N7R
Output: false (0)

Task: Next variant: C9N
Output: true (1)

Task: Next variant: H22W
Output: false (0)

Task: Next variant: S13G
Output: true (1)

Task: Next variant: I23N
Output: true (1)
